Molecular target: T1, IL-2hex, mutant human IL-2 (deltaA1/T3A/F42A/Y45A/L72G/C125S) (human, UniProt P60568 22-153)
T1 chain: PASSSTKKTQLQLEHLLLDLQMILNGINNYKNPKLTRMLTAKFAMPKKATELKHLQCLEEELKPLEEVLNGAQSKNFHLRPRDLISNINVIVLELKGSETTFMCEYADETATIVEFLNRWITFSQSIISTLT
Assay: BLI per 6.1.3; column head IL-2 KD
property-measured: Kd (nM)
Entry rule: numbers only, all in nM.

# annotated cases, reported Kd shown
• D029 HV2LV4 (bispecific antibody, V domains shown, also called Rev1-Q27G:P94Y/S55L:S32F) VH: EVQLVESGGGLVQPGGSLRLSCAASGFTFTWFFMSWVRQAPGKGLEWVSWIGPSGLYTDYADSVKGRFTISRDNSKNTLYLQMNSLRAEDTAVYYCARSQYGRYYSPDYYFDYWGQGTLVTVSS VL: DIQMTQSPSSLSASVGDRVTITCRASGALGFYLNWYQQKPGKAPKLLIYAASSLSSGVPSRFSGSGSGTDFTLTISSLQPEDFATYYCQQGRTYPLTFGQGTKVEIKR = 1590
• D029 HV2LV2 (bispecific antibody, V domains shown, also called Rev1-Q27G:P94Y:L96F/S55L:S32F) VH: EVQLVESGGGLVQPGGSLRLSCAASGFTFTWFFMSWVRQAPGKGLEWVSWIGPSGLYTDYADSVKGRFTISRDNSKNTLYLQMNSLRAEDTAVYYCARSQYGRYYSPDYYFDYWGQGTLVTVSS VL: DIQMTQSPSSLSASVGDRVTITCRASGALGFYLNWYQQKPGKAPKLLIYAASSLSSGVPSRFSGSGSGTDFTLTISSLQPEDFATYYCQQGRTYPFTFGQGTKVEIKR = 419

Lookup: Bench note: what Kd did anti-IL-2/anti-FAP two-in-one antibody D029 (bispecific antibody, V domains shown) VH: EVQLVESGGGLVQPGGSLRLSCAASGFTFTWSFMSWVRQAPGKGLEWVSWIGPSGSYTDYADSVKGRFTISRDNSKNTLYLQMNSLRAEDTAVYYCARSQYGRYYSPDYYFDYWGQGTLVTVSS VL: DIQMTQSPSSLSASVGDRVTITCRASQDGGNYLNWYQQKPGKAPKLLIYGASTLYSGVPSRFSGSGSGTDFTLTISSLQPEDFATYYCQQGRTPPLTFGQGTKVEIKR show?
Found: 431
